targetUnderTest: Human PDE7B (hPDE7B) (Homo sapiens, UniProt Q9NP56)
Construct: made in house; host or cells: COS-7 cells
Sequence (Q9NP56 whole entry): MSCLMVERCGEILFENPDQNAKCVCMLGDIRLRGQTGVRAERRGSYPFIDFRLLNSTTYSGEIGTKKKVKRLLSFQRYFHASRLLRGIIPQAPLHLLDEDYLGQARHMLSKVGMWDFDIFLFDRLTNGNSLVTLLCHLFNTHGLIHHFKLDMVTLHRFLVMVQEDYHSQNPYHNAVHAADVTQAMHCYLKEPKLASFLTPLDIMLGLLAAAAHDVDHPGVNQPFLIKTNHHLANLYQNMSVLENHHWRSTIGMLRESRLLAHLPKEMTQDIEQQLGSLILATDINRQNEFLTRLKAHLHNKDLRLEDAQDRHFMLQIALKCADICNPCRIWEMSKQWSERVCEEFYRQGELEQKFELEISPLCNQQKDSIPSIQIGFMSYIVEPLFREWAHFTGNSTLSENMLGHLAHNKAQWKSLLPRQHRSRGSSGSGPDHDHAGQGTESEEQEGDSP
experimentalProtocol: Measurement of PDE7 inhibitory activity (Experimental Example 1; residual cAMP, LANCE Ultra cAMP TR-FRET)
Format: biochemical
cond: cAMP 3 nmol/L, room temperature 60 minutes
pIC50: −log10 of the molar value.
The threshold is inclusive: pIC50 of exactly 7 counts as t; values below receive f.

• Nc1ncnc2c1nnn2C1CCCC(C(F)F)C1 (single isomer, unassigned) [Example 201] = f
• Nc1nccn2c(C3CCCC(C(F)(F)F)C3)nnc12 (racemic) [Example 146] = t
• CN1CCC[C@H](n2nnc3c(N)ncnc32)C1 = f
• Nc1ncnc2c1nnn2C1CCCc2ccccc21 (stereo not shown) = f
• CC1CCN(c2nnc3c(N)nccn23)C(C)C1 (racemic) = t
• CO[C@H]1CCCC[C@H]1n1nnc2c(N)ncnc21 (racemic) = f
• CC1CCCC(c2nnc3c(N)ncnn23)C1 (single isomer, unassigned) [Example 240] = t
• CC1(C)CCC(n2nnc3c(N)ncnc32)CC1 = t
• CC1CCCC(n2nnc3c(N)ncnc32)C1 (single isomer, unassigned) [Example 199] = t
• Nc1nccn2c(N3C[C@H]4C[C@H]4C3)nnc12 = f
• CC1CCN(c2nnc3c(N)nccn23)CC1C (single isomer, unassigned) [Example 231] = t
• CCCC1CCCCN1c1nnc2c(N)nccn12 (racemic) = f
• Nc1ncnc2c1nnn2C1CCCCC1C(F)(F)F (racemic) = f

---

Target or system hPDE8B (Homo sapiens, UniProt O95263): recorded log10 of IC50 listed per item.
readout: log10 of IC50 (log10 of the value in µM)

* Nc1nccn2c(C3CC4(CC4)C3)nnc12 [Example 20] | 0.20
* Nc1nccn2c(C3CCc4[nH]ncc4C3)nnc12 (stereo not shown) [Example 159] | 0.55
* Nc1ncnn2c(C3CCCC(C(F)(F)F)C3)nnc12 (single isomer, unassigned) [Example 75] | 0.64
* CC1CC(C)CN(c2nnc3c(N)ncc(C#N)n23)C1 (racemic) [Example 54] | 0.53
* Nc1ncnc2c(C3CCCCC3)noc12 [Example 188] | 0.87
* CCC1CCCCN1c1nnc2c(N)nccn12 (single isomer, unassigned) [Example 222] | 1.03
* CC(C)(C)OC(=O)N1CCC[C@H](n2nnc3c(N)ncnc32)C1 [Example 13] | -0.66
* Nc1ncnc2c1nnn2C1CCCC(COCc2ccccc2)C1 (stereo not shown) [Example 126] | 0.42
* Nc1nccn2c(N3CCCC(C(F)(F)F)C3)nnc12 (stereo not shown) [Example 46] | 0.89
* Nc1nccn2c(N3C4CCCC3CC4)nnc12 [Example 67] | 1.18
* Nc1nccn2c(C3CCCOC3)nnc12 (stereo not shown) [Example 169] | 0.24
* CC1CCC(F)(F)CC1c1nnc2c(N)nccn12 (stereo not shown) [Example 153] | 1.34
* CC1CCN(c2nnc3c(N)nccn23)CC1 [Example 28] | 0.57
* CC1CCC(F)(F)CC1c1nnc2c(N)ncnn12 (single isomer, unassigned) [Example 246] | 0.64
* Nc1ncnc2c1nnn2C1CCCC(COc2ccccc2)C1 (stereo not shown) [Example 125] | 0.05
* Nc1ncnc2c1nnn2C1CCCC(C(F)F)C1 (single isomer, unassigned) [Example 200] | 0.00
* Nc1nccn2c([C@H]3C[C@@H](C(F)(F)F)CCC3(F)F)nnc12 (racemic) [Example 172] | 0.95
* CC1CCCC(n2nnc3c(N)ncnc32)C1 (single isomer, unassigned) [Example 199] | 0.84
* CN1CCC[C@H](n2nnc3c(N)ncnc32)C1 [Example 135] | 0.97
* CC1CCC(C(F)(F)F)CC1c1nnc2c(N)nccn12 (single isomer, unassigned) [Example 174] | 0.83
* Nc1ncnc2c1nnn2C1CCCCC1 [Example 3] | -0.15
* CC1CCN(c2nnc3c(N)nccn23)C(C)C1 (racemic) [Example 61] | 1.26
* Nc1nccn2c(C3CCCC3)nnc12 [Example 161] | 0.25
* CC1CCN(c2nnc3c(N)nccn23)C(C)C1 (racemic) [Example 62] | 1.33
* Nc1nccn2c([C@H]3CCCC(F)(F)C3)nnc12 [Example 212] | 0.78
* Nc1nccn2c(C3[C@H]4CCCC[C@@H]34)nnc12 (stereo partly shown) [Example 164] | 0.64
* Nc1ncnc2c1nnn2C1CCCCC1F (single isomer, unassigned) [Example 195] | 0.15
* CC1(C)CCCC(n2nnc3c(N)ncnc32)C1 (racemic) [Example 128] | 0.12
* CC1CC(C)CN(c2nnc3c(N)nccn23)C1 (single isomer, unassigned) [Example 226] | 0.62
* Nc1nccn2c(N3CCCCCC3)nnc12 [Example 29] | 0.71
* Nc1ncnn2c(C3CCCC(F)(F)C3)nnc12 (racemic) [Example 82] | 0.40
* Nc1ncnc2c1nnn2C1CCCC(C(F)(F)F)C1 (single isomer, unassigned) [Example 202] | 0.06
* C[C@H]1C[C@H](n2nnc3c(N)ncnc32)CC(C)(C)C1 (racemic) [Example 109] | 1.11
* C[C@H]1CC[C@H](c2nnc3c(N)nccn32)CC1 [Example 149] | 0.22
* Nc1nccn2c(N3CCCCC34CC4)nnc12 [Example 38] | 0.44
* CC1CCCC(n2nnc3c(N)ncnc32)C1 (single isomer, unassigned) [Example 196] | -0.54
* C[C@H]1CC[C@H](n2nnc3c(N)ncnc32)CC1 [Example 8] | -0.62

---

targetUnderTest: hPDE8B (Homo sapiens)
Construct: purchased SB Drug Discovery
Sequence (O95263 whole entry): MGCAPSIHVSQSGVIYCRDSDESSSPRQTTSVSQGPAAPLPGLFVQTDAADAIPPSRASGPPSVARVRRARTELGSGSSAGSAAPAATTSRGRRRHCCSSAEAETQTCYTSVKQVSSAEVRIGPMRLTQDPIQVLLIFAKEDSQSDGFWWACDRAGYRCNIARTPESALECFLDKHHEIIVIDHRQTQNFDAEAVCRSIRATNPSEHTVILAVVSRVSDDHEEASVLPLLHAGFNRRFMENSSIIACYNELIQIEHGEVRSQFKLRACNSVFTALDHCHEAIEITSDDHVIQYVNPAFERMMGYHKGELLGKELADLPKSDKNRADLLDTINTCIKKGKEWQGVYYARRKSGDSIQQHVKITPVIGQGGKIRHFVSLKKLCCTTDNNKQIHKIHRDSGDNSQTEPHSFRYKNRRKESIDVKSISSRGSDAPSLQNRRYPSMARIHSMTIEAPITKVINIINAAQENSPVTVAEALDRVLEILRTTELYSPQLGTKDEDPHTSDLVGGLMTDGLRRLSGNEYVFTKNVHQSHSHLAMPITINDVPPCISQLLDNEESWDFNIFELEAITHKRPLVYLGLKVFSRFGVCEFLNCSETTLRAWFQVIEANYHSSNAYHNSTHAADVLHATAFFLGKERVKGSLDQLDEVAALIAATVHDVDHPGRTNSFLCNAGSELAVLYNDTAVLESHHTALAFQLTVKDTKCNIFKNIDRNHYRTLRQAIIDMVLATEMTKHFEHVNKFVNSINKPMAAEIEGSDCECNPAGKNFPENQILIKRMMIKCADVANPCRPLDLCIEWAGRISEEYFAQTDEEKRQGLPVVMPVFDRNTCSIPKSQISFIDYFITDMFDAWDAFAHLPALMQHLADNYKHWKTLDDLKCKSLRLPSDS
experimentalProtocol: PDE8 inhibition assay (IC50), Experimental Example 3
Format: biochemical
cond: at 1 μmol/L; read-out: inhibition rate (%) at prescribed concentration, PDE8
Measured inhibition at 1 µM, listed per entry.
readout: inhibition at 1 µM (%)

* Nc1nccn2c(N3CCCC(Cc4ccccc4)C3)nnc12 (stereo not shown) [Example 48] | 79
* Nc1ncnc2c1nnn2C1CCCCC1(F)F (single isomer, unassigned) [Example 115] | 52
* CC1(C)CCCC(c2nnc3c(N)ncnn23)C1 (single isomer, unassigned) [Example 242] | 84
* Nc1ncnc2c1nnn2C1CCCC(CF)C1 (stereo not shown) [Example 118] | 55
* CC1(C)CCCN(c2nnc3c(N)ncc(C(F)(F)F)n23)C1 [Example 252] | 53
* Nc1ncnc2c1nnn2[C@@H]1CCCOC1 [Example 90] | 59
* CC1CCCCC1c1nnc2c(N)ncnn12 (single isomer, unassigned) [Example 238] | 51
* Nc1ncnc2c1nnn2C1CCCCC1F (single isomer, unassigned) [Example 194] | 79
* Nc1ncnn2c(C3CCCC(C(F)(F)F)C3)nnc12 (single isomer, unassigned) [Example 244] | 73
* Nc1nccn2c([C@@H]3C[C@@H]4[C@H](C3)C4(F)F)nnc12 [Example 160] | 54

---

targetUnderTest: hPDE4D (Homo sapiens)
Sequence (Q08499 whole entry): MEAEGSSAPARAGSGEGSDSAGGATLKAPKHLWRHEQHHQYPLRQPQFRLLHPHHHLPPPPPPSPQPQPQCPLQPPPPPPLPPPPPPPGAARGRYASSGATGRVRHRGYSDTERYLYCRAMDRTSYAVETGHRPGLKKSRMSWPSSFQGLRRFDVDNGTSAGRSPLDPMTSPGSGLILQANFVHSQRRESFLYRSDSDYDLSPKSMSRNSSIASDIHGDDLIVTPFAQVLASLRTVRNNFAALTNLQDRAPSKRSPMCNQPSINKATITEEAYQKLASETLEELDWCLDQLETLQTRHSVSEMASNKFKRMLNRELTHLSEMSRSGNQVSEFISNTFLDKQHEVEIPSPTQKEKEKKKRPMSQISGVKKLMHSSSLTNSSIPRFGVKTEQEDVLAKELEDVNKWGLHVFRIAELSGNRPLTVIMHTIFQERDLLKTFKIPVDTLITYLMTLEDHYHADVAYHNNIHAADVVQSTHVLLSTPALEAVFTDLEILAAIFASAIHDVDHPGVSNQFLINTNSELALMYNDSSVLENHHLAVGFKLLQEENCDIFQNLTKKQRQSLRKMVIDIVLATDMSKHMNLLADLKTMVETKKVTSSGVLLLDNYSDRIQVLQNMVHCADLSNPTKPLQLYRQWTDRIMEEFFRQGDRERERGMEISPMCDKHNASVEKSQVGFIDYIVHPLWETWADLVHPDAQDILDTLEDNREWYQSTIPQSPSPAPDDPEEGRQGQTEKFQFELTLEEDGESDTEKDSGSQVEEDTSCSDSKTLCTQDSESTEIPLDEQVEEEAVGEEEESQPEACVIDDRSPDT
IC50 by entry:
readout: IC50 (µM)

* CC1(C)CCCC(n2nnc3c(N)ncnc32)C1 (racemic) | 4.53
* Nc1ncnc2c1nnn2C1CCCCC1 | 7.82
* COc1nc(N)c2nnn(C3CCCCC3)c2n1 | 0.64
* Nc1nccn2c([C@H]3[C@@H]4CCC[C@@H]43)nnc12 | 4.7
* CC1CC(c2nnc3c(N)nccn23)CC(F)(F)C1 (single isomer, unassigned) [Example 216] | 30.6
* CC1(C)CCC(n2nnc3c(N)ncnc32)CC1 | 0.64
* CC1(C)CCCC(c2nnc3c(N)nccn23)C1 (single isomer, unassigned) | 10.5
* CC1CCCC(n2nnc3c(N)ncnc32)C1 (single isomer, unassigned) | 2.49
* Nc1nccn2c([C@H]3C[C@@H](C(F)(F)F)CCC3(F)F)nnc12 (racemic) | 5.9
* CC1CCCCC1n1nnc2c(N)ncnc21 (single isomer, unassigned) | 9.2
* Nc1nccn2c(C3CCCCC3)nnc12 | 6.22
* C[C@@H]1CCCCN1c1nnc2c(N)nccn12 | 8.3
* CCC1CCCCN1c1nnc2c(N)nccn12 (single isomer, unassigned) | 3.24
* Nc1ncnc2c1nnn2C1CCCC(C(F)F)C1 (single isomer, unassigned) | 0.54
* CC1CCN(c2nnc3c(N)nccn23)CC1 | 4.3
* CSc1nc(N)c2nnn(C3CCCCC3)c2n1 | 0.19
* Nc1nccn2c([C@@H]3C[C@@H]4[C@H](C3)C4(F)F)nnc12 | 3.41
* Nc1nccn2c(N3CCCCC3)nnc12 | 3.87
* Nc1ncnc2c1nnn2C1CCCC(C(F)(F)F)C1 (single isomer, unassigned) | 5.31
* CC1CCCC(c2nnc3c(N)ncnn23)C1 (single isomer, unassigned) | 1.49
* CC1CCC(C)N(c2nnc3c(N)nccn23)C1 (single isomer, unassigned) | 1.4
* Nc1nccn2c(C3CCCCC3)ncc12 | 7.8
* Nc1ncnn2c(C3CCCCC3)nnc12 | 4.13
* Nc1ncnn2c(C3CCCC(C(F)(F)F)C3)nnc12 (single isomer, unassigned) | 27.1
* Nc1nccn2c(N3CCCC(C(F)(F)F)C3)nnc12 (stereo not drawn) | 56.9
* Cc1cnc(N)c2nnc(N3CCCC(C)(C)C3)n12 | 6
* CC1CCCN(c2nnc3c(N)nccn23)C1 (stereo not drawn) | 6.3
* Nc1nccn2c(N3C4CCCC3CC4)nnc12 | 21
* C[C@@H]1C[C@H](C)CN(c2nnc3c(N)nccn23)C1 | 8.19
* CC1CC(C)CN(c2nnc3c(N)nccn23)C1 (single isomer, unassigned) | 3.6
* C[C@H]1CC[C@H](c2nnc3c(N)nccn32)CC1 | 2.2
* CC(C)(C)OC(=O)N1CCCCC1c1nnc2c(N)nccn12 (stereo not drawn) | 5.78
* C[C@H]1CC[C@H](n2nnc3c(N)ncnc32)CC1 | 2.13
